So I've got a bunch of compounds here, and I need their LogSel values.
Measured target: human GABAA α1β3γ2 receptor (Homo sapiens (Human), UniProt P14867+P18507)
Test description: Radioligand binding assay for γ2-containing GABAA subtypes, [3H]Flumazenil competition (α1β3γ2)
Condition context: Log[Ki α1β3γ2 (nM)/Ki α2β2γ1 (nM)]
Quick one: just the number, no unit, thanks!

query: // returns reported LogSel for input C[C@@H]1N=C(c2c(F)cccc2F)c2c(ccc(C(F)(F)F)c2Cl)-n2nc(C(=O)NCC#N)nc21 [Example 110]
result: 2.31

query: Look up LogSel for this compound: C[C@@H]1N=C(c2c(F)cccc2F)c2c(ccc(Cl)c2Cl)-n2nc(C(=O)NC3COC3)nc21 [Example 55]
result: 2.01

query: What value of LogSel has been reported for the following compound? Cc1cn2c(n1)[C@H](C)N=C(c1ncccc1F)c1c-2ccc(C(F)(F)F)c1Cl [Example 139]
result: 2.00

query: What does the data say about its LogSel? Entry: [2H]C([2H])([2H])NC(=O)c1nc2n(n1)-c1ccc(Cl)c(Cl)c1C(c1c(F)cccc1F)=N[C@H]2C [Example 20]
result: 2.05

query: Item under review: CNC(=O)c1nc2n(n1)-c1ccc(Cl)c(Cl)c1C(c1c(F)cccc1F)=NC2 [Example 6] . Reported LogSel?
result: 2.42

query: // returns reported LogSel for input CC(=O)NCc1nc2n(n1)-c1ccc(Cl)c(Cl)c1C(c1c(F)cccc1F)=N[C@H]2C [Example 67]
result: 1.98

query: Record request: LogSel value, item C[C@@H]1N=C(c2c(F)cccc2F)c2c(ccc(C(F)(F)F)c2Cl)-n2nc(NC(=O)N3CC(F)C3)nc21 [Example 128]
result: 2.05

====

Measured target: α2β2γ1 GABAA receptor subtype (Homo sapiens (Human), UniProt P47869+Q8N1C3)
Test description: Two-electrode voltage clamp electrophysiology in Xenopus oocytes expressing GABAA receptors (modulation of GABA EC20 current)
Assay type: cell-based
Condition context: Xenopus oocytes expressing α2β2γ1; compound at approx. 30-fold its Ki α2β2γ1; GABA EC20 current
Recorded endpoint: Fold increase h-GABA-A α2β2γ1 oocyte @ 30-fold Ki

query: Quick check: Fold increase h-GABA-A α2β2γ1 oocyte @ 30-fold Ki of "C[C@@H]1N=C(c2ncccc2F)c2c(ccc(Cl)c2Cl)-n2nc(C(=O)NC3CC3)nc21" ?
result: 2.62

query: Param item = "C[C@@H]1N=C(c2c(F)cccc2F)c2c(ccc(Cl)c2Cl)-n2nc(C#N)nc21" ; retrieve measured Fold increase h-GABA-A α2β2γ1 oocyte @ 30-fold Ki.
result: 1.73

query: Need Fold increase h-GABA-A α2β2γ1 oocyte @ 30-fold Ki, item "COC1CN(C(=O)c2nc3n(n2)-c2ccc(C(F)(F)F)c(Cl)c2C(c2ncccc2F)=N[C@H]3C)C1"
result: 2.13

====

Measured target: α2β2γ1 GABAA receptor subtype (Homo sapiens (Human), UniProt P47869+Q8N1C3)
Test description: Two-electrode voltage clamp electrophysiology in Xenopus oocytes expressing GABAA receptors (modulation of GABA EC20 current)
Format: cell-based
Condition context: % modulation of GABA EC20 = 100*(Fold increase-1); α2β2γ1 oocytes; compound at approx. 30-fold Ki
// assign 1 if Efficacy (GABA)% falls strictly below 80%, else -1 (ties count as -1)

query: Determine if "[2H]C([2H])([2H])N(C(=O)c1nc2n(n1)-c1ccc(Cl)c(Cl)c1C(c1c(F)cccc1F)=N[C@H]2C)C([2H])([2H])[2H]" shows Efficacy (GABA)% strictly lower than 80%.
result: -1

query: Is it true that Efficacy (GABA)% reported for "[2H]C([2H])([2H])NC(=O)c1nc2n(n1)-c1ccc(C(F)(F)F)c(Cl)c1C(c1c(F)cccc1F)=N[C@H]2C" is less than 80%?
result: 1

query: Hi there! Is Efficacy (GABA)% for "CCOC1CN(C(=O)c2cn3c(n2)[C@H](C)N=C(c2ncccc2F)c2c-3ccc(C(F)(F)F)c2Cl)C1" below 80%, do you know?
result: -1

query: Decide: Efficacy (GABA)% of "Cc1nc2n(n1)-c1ccc(Cl)c(Cl)c1C(c1c(F)cccc1F)=N[C@H]2C" strictly below 80%?
result: 1

====

Measured target: human GABAA α1β3γ2 receptor (Homo sapiens (Human), UniProt P14867+P18507)
Test description: Radioligand binding assay for γ2-containing GABAA subtypes, [3H]Flumazenil competition (α1β3γ2)
Condition context: Ki α1β3γ2 (nM)/Ki α2β2γ1 (nM)
Recorded endpoint: γ2/γ1 Selectivity Ratio

query: Record request: γ2/γ1 Selectivity Ratio value, item "C[C@@H]1N=C(c2c(F)cccc2F)c2c(ccc(Cl)c2Cl)-n2nc(C(=O)NCC#N)nc21"
result: 93.4

query: Which γ2/γ1 Selectivity Ratio value is on record for "C[C@@H]1N=C(c2ncccc2F)c2c(ccc(C(F)(F)F)c2Cl)-n2c(CO)cnc21" ?
result: 142.0

query: Given the compound "C[C@@H]1N=C(c2ncccc2F)c2c(ccc(C(F)(F)F)c2Cl)-n2nc(NC(=O)NC3CC3)nc21" , what is its reported γ2/γ1 Selectivity Ratio?
result: 296.6

query: Requested field: γ2/γ1 Selectivity Ratio. Item: "C[C@@H]1N=C(c2ncccc2F)c2c(ccc(C(F)(F)F)c2Cl)-n2cc(C(=O)N3CC(C(F)F)C3)nc21"
result: 116.1

query: What value of γ2/γ1 Selectivity Ratio has been recorded for this entry: "C[C@@H]1N=C(c2c(F)cccc2F)c2c(ccc(Cl)c2Cl)-n2nc(C(=O)NCC(F)F)nc21"
result: 90.9

====

Measured target: human GABAA α1β3γ2 receptor (Homo sapiens (Human), UniProt P14867+P18507)
Test description: Radioligand binding assay for γ2-containing GABAA subtypes, [3H]Flumazenil competition (α1β3γ2)
Condition context: Ki α1β3γ2 (nM)/Ki α2β2γ1 (nM)
Exercise: state measured γ2/γ1 Selectivity Ratio for each of the compounds provided.
Give the figure by itself; no unit, no explanation.

query: Given the entry "COC1CN(C(=O)c2nc3n(n2)-c2ccc(C(F)(F)F)c(Cl)c2C(c2c(F)cccc2F)=NC3)C1" , report its measured γ2/γ1 Selectivity Ratio.
result: 171.8

query: Please look up its γ2/γ1 Selectivity Ratio: "C[C@@H]1N=C(c2c(F)cccc2F)c2c(ccc(Cl)c2Cl)-n2nc(C(=O)N3CC4(CCO4)C3)nc21"
result: 150.7

query: Would you mind telling me what γ2/γ1 Selectivity Ratio value was observed for "CNC(=O)c1cn2c(n1)CN=C(c1ncccc1F)c1c-2ccc(Cl)c1Cl" ?
result: 13.8

query: Given the entry "Fc1cccc(F)c1C1=NCc2nc(C(F)F)nn2-c2ccc(Cl)c(Cl)c21" , report its measured γ2/γ1 Selectivity Ratio.
result: 61.2

====

Measured target: α2β2γ1 GABAA receptor subtype (Homo sapiens (Human), UniProt P47869+Q8N1C3)
Test description: Two-electrode voltage clamp electrophysiology in Xenopus oocytes expressing GABAA receptors (modulation of GABA EC20 current)
Format: cell-based
Condition context: % modulation of GABA EC20 = 100*(Fold increase-1); α2β2γ1 oocytes; compound at approx. 30-fold Ki
Exercise: state measured Efficacy (GABA)% for each of the compounds provided.
Output spec: scalar in %, unitless text.

query: Look at this compound and give its reported Efficacy (GABA)%. "COCc1nc2n(n1)-c1ccc(Cl)c(Cl)c1C(c1c(F)cccc1F)=N[C@H]2C"
result: 69

query: Look up Efficacy (GABA)%: "CO[C@@H]1CCN(C(=O)c2nc3n(n2)-c2ccc(Cl)c(Cl)c2C(c2c(F)cccc2F)=N[C@H]3C)C1"
result: 73

query: // query Efficacy (GABA)% value for entry "C[C@@H]1N=C(c2c(F)cccc2F)c2c(ccc(Cl)c2Cl)-n2nc(C(=O)NCCF)nc21"
result: 78

query: For the compound "C[C@@H]1N=C(c2c(F)cccc2F)c2c(ccc(Cl)c2Cl)-n2nc(NC(=O)N3CC(F)C3)nc21" , what Efficacy (GABA)% is on record?
result: 76

query: Which value of Efficacy (GABA)% has been reported for C[C@@H]1N=C(c2c(F)cccc2F)c2c(ccc(C(F)(F)F)c2Cl)-n2nc(NC(=O)N3C4COCC3C4)nc21 (single isomer, unassigned) in the records?
result: 116

====

Hi there, I'd appreciate the recorded γ2/γ1 Selectivity Ratio for every entry that follows.
Measured target: human GABAA α1β3γ2 receptor (Homo sapiens (Human), UniProt P14867+P18507)
Test description: Radioligand binding assay for γ2-containing GABAA subtypes, [3H]Flumazenil competition (α1β3γ2)
Condition context: Ki α1β3γ2 (nM)/Ki α2β2γ1 (nM)
Format: numeric value only, no unit, no commentary.

query: What measured γ2/γ1 Selectivity Ratio goes with C[C@@H]1N=C(c2ncccc2F)c2c(ccc(C(F)(F)F)c2Cl)-n2cc(C(=O)NCC3(O)CC3)nc21 [Example 164] ?
result: 253.2

query: Reported γ2/γ1 Selectivity Ratio for C[C@@H]1N=C(c2ncccc2F)c2c(ccc(Cl)c2Cl)-n2nc(C(=O)N3CC4(CCOC4)C3)nc21 [Example 100] : what is it?
result: 219.5

query: Which γ2/γ1 Selectivity Ratio reading was recorded for the molecule C[C@@H]1N=C(c2ncccc2F)c2c(ccc(Cl)c2Cl)-n2nc(C(=O)N3CC4(COC4)C3)nc21 [Example 102] ?
result: 140.7

query: Fill in the blank: the reported γ2/γ1 Selectivity Ratio of C[C@@H]1N=C(c2ncccc2F)c2c(ccc(C(F)(F)F)c2Cl)-n2cc(C(=O)N[C@H]3C[C@@H](O)C3)nc21 [Example 166] is ____.
result: 234.5

query: Form field: reported γ2/γ1 Selectivity Ratio of CNC(=O)c1nc2n(n1)-c1ccc(Cl)c(Cl)c1C(c1c(F)cccc1F)=NC2 [Example 6]
result: 260.9

query: I would be grateful if you could share the reported γ2/γ1 Selectivity Ratio for C[C@@H]1N=C(c2c(F)cccc2F)c2c(ccc(Cl)c2Cl)-n2cc(C(=O)N3CC(O)C3)nc21 [Example 68] .
result: 44.0

query: Name the recorded γ2/γ1 Selectivity Ratio for C[C@@H]1N=C(c2c(F)cccc2F)c2c(ccc(Cl)c2Cl)-n2nc(C(=O)N3CC(C#N)C3)nc21 [Example 41] .
result: 118.6

query: Fill in: γ2/γ1 Selectivity Ratio of C[C@@H]1N=C(c2ncccc2F)c2c(ccc(C(F)(F)F)c2Cl)-n2nc(N3CCOC3=O)nc21 [Example 147] is ___
result: 255.4

query: Give its γ2/γ1 Selectivity Ratio value. Item: C[C@@H]1N=C(c2c(F)cccc2F)c2c(ccc(C(F)(F)F)c2Cl)-n2cc(CO)nc21 [Example 149]
result: 134.1

query: Requested read-out: γ2/γ1 Selectivity Ratio. Entry: C[C@@H]1N=C(c2c(F)cccc2F)c2c(ccc(Cl)c2Cl)-n2nc(C(=O)N3CC(O)C3)nc21 [Example 25]
result: 172.8

query: Need γ2/γ1 Selectivity Ratio, item Cc1cn2c(n1)[C@H](C)N=C(c1ncccc1F)c1c-2ccc(C(F)(F)F)c1Cl [Example 139]
result: 99.6

query: Requested read-out: γ2/γ1 Selectivity Ratio. Entry: C[C@@H]1N=C(c2c(F)cccc2F)c2c(ccc(C(F)(F)F)c2Cl)-n2nc(NC(=O)N3CC(F)C3)nc21 [Example 128]
result: 111.4
